# test_system: TPP-1987 (hTNFRSF12Aaa28-80-S40R-hIgG1-Fc) (human)
# assay_notes: ELISA, TWEAKR-Fc coated 62 ng/ml, biotin-IgG titrated; + means IC50 1 to 150 pM;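 also: biotinylated IgG binding to immobilized TWEAKR-Fc muteins, detected with Streptavidin-HRP and Amplex Red, IC50 derived from fitted dose-response curves of twofold serial dilutions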

| binder | binding result |
| --- | --- |
| P4A8(TPP-1324) (antibody, human IgG1, kappa, V domains shown, Human IgG1; variable domains from WO2009/140177 with constant region added) VH: QVQLVQSGAEVKKPGASVKVSCKGSGYTFTDYGMHWVRQAPGQGLEWMGVISTYNGYTNYNQKFKGRVTMTVDKSTSTAYMELRSLRSDDTAVYYCARAYYGNLYYAMDYWGQGTLVTVSS VL: DIVLTQSPASLAVSLGQRATISCRASKSVSTSSYSYMHWYQQKPGQPPKLLIKYASNLESGVPARFSGSGSGTDFSLNIHPMEEDDTAMYFCQHSRELPFTFGGGTKLEIKR | binds |
